Data origin: ChEMBL document CHEMBL4765412

# ASSAY_TEXT: Selectivity index, ratio of IC50 for cytotoxicity against rat L6 cells to IC50 for antileishmanial activity against Leishmania donovani MHOM/ET/67/L82 amastigotes
# Format: toxicity, cell-based
# CONDITION: read-out: Ratio IC50
Please go through the items and note down their selectivity ratio.
Just the number, please.

// query Consider the compound CC(C)OC(=O)/C=C/c1ccc2c(c1)[C@H](C(=O)OC(C)C)[C@@H](c1ccc(O)cc1)O2 (racemic) and give its measured selectivity ratio.
// result 3.4

// query Looking for the measured selectivity ratio of OC[C@H]1c2cc(-c3ccc(O)cc3)ccc2O[C@@H]1c1ccc(O)cc1 (racemic) , can you help?
// result 2.7

// query Using the record for CCOC(=O)/C=C/c1cc(O)c2c(c1)[C@H](C(=O)OCC)[C@@H](c1ccc(O)c(O)c1)O2 (racemic) , report its selectivity ratio.
// result 2.6

// query Quick one: selectivity ratio of CC(C)(C)OC(=O)/C=C/c1ccc2c(c1)[C@H](CO)[C@@H](c1ccc(O)cc1)O2 (racemic) ?
// result 2

// query Which selectivity ratio is listed for OC[C@H]1c2ccccc2O[C@@H]1c1cc(Br)c(O)c(Br)c1 (racemic) ?
// result 10.8

// query What does the data say about its selectivity ratio? Entry: C[C@H]1c2cc(/C=C/C(=O)O)ccc2O[C@@H]1c1ccc(O)cc1 (racemic)
// result 13.1

// query Quick one: selectivity ratio for COc1cc([C@H]2Oc3ccc(Br)cc3[C@@H]2C)cc(Br)c1O (racemic) ?
// result 2.6

// query Which selectivity ratio is listed for COc1ccc([C@H]2Oc3ccc(/C=C/C(=O)OC(C)(C)C)cc3[C@@H]2CF)cc1OC (racemic) ?
// result 2.6

// query Query (compound): COc1ccc([C@H]2Oc3ccccc3[C@@H]2C)cc1 (racemic) ; field requested: selectivity ratio
// result 1.6

// query Endpoint output: selectivity ratio of O=Cc1ccc(-c2ccc3c(c2)[C@H](CO)[C@@H](c2ccc(O)cc2)O3)cc1 (racemic) . Value?
// result 1.5

// query Would you mind telling me what selectivity ratio value was observed for CCOC(=O)/C=C/c1cc(OC)c2c(c1)[C@H](C(=O)OCC)[C@@H](c1ccc(O)c(OC)c1)O2 (racemic) ?
// result 0.5

// query Look up selectivity ratio: CCCCOC(=O)/C=C/c1cc(OC)c2c(c1)[C@H](C(=O)OCCCC)[C@@H](c1ccc(O)c(OC)c1)O2 (racemic)
// result 2.6

// query Fill in the blank: the reported selectivity ratio of CCCCOC(=O)/C=C/c1ccc2c(c1)[C@H](C(=O)OCCCC)[C@@H](c1ccc(O)cc1)O2 (racemic) is ____.
// result 1.3

// query If you can, please state the reported selectivity ratio value of CC(C)(C)OC(=O)/C=C/c1cc(O)c2c(c1)[C@H](C(=O)OC(C)(C)C)[C@@H](c1ccc(O)c(O)c1)O2 (racemic) .
// result 5.5

// query May I ask what selectivity ratio has been recorded for Cc1ccc(-c2ccc3c(c2)[C@H](CO)[C@@H](c2ccc(O)cc2)O3)s1 (racemic) ?
// result 1

// query Which value of selectivity ratio has been reported for COc1cc([C@H]2Oc3ccc(Cl)cc3[C@@H]2C)cc(Cl)c1O (racemic) in the records?
// result 4.8

// query For the compound COc1cc([C@H]2Oc3ccc(Br)cc3[C@@H]2CO)cc(Br)c1O (racemic) , what selectivity ratio is on record?
// result 3.8

// query What value of selectivity ratio has been recorded for this entry: CC(C)OC(=O)/C=C/c1cc(O)c2c(c1)[C@@H](C(=O)OC(C)C)[C@H](c1ccc(O)c(O)c1)O2
// result 16.4

// query # lookup: selectivity ratio of CC(C)(C)OC(=O)/C=C/c1ccc2c(c1)[C@H](C(=O)OC(C)(C)C)[C@@H](c1ccc(O)cc1)O2 (racemic)
// result 2.2

// query Suppose we examine the compound OC[C@H]1c2cc(Br)ccc2O[C@@H]1c1ccc(O)c(O)c1 (racemic) ; what selectivity ratio value has been reported?
// result 0.2

// query Please look up its selectivity ratio: C[C@H]1c2cc(Br)ccc2O[C@@H]1c1ccc(O)cc1 (racemic)
// result 1.7

// query Field request: selectivity ratio | item: CCCCOC(=O)/C=C/c1cc(O)c2c(c1)[C@H](C(=O)OCCCC)[C@@H](c1ccc(O)c(O)c1)O2 (racemic)
// result 5.6

// query Quick one: selectivity ratio of COc1ccc([C@H]2Oc3ccc(/C=C/C(=O)OC(C)(C)C)cc3[C@@H]2C)cc1 (racemic) ?
// result 10

// query Entry COc1cc([C@H]2Oc3c(OC)cc(/C=C/C(=O)NCCO)cc3[C@@H]2C(=O)NCCO)ccc1O (racemic) : reported selectivity ratio = ?
// result 1

// query Could you share which selectivity ratio value was measured for COc1cc([C@H]2Oc3c(OC)cc(/C=C/CO)cc3[C@@H]2CO)ccc1O (racemic) ?
// result 0.5

// query Value lookup for selectivity ratio; key = COc1ccc([C@H]2Oc3ccc(C=O)cc3[C@@H]2C)cc1 (racemic)
// result 1.4

// query Suppose we examine the compound CC(C)CC(=O)/C=C/c1cc(O)c2c(c1)[C@H](C(=O)CC(C)C)[C@@H](c1ccc(O)c(O)c1)O2 (racemic) ; what selectivity ratio value has been reported?
// result 1.1

// query Endpoint output: selectivity ratio of COc1cc([C@H]2Oc3ccccc3[C@@H]2CO)ccc1O (racemic) . Value?
// result 0.3

// query Data request, read-out selectivity ratio, for CC(C)NC(=O)/C=C/c1cc(O)c2c(c1)[C@H](C(=O)NC(C)C)[C@@H](c1ccc(O)c(O)c1)O2 (racemic)
// result 0.7

// query Recorded selectivity ratio for CCOC(=O)/C=C/c1ccc2c(c1)[C@H](C(=O)OCC)[C@@H](c1ccc(O)cc1)O2 (racemic) , please?
// result 3.5

###

# ASSAY_TEXT: Selectivity index, ratio of IC50 for cytotoxicity against rat L6 cells to IC50 for antileishmanial activity against Leishmania donovani MHOM/ET/67/L82 amastigotes
# Assay type: toxicity, cell-based
# CONDITION: read-out: Ratio IC50
Kind request: treat 1 as inclusive, so selectivity ratio at 1 or higher is Fulfilled, anything lower is Not fulfilled.

// query Would you say CC(=O)OC[C@H]1c2cc(Br)ccc2O[C@@H]1c1ccc(O)cc1 (racemic) shows selectivity ratio at minimum 1?
// result Fulfilled

// query Can CC(C)(C)CC(=O)/C=C/c1cc(O)c2c(c1)[C@H](C(=O)CC(C)(C)C)[C@@H](c1ccc(O)c(O)c1)O2 (racemic) be said to have selectivity ratio at or above 1?
// result Not fulfilled

// query # check: selectivity ratio of COC(=O)/C=C/c1cc(O)c2c(c1)[C@H](C(=O)OC)[C@@H](c1ccc(O)c(O)c1)O2 (racemic) is greater than or equal to 1
// result Not fulfilled

// query Given the entry CC(=O)Oc1ccc([C@H]2Oc3ccc(/C=C/C(=O)OC(C)(C)C)cc3[C@@H]2C(=O)OC(C)(C)C)cc1 (racemic) , answer whether its selectivity ratio meets or surpasses 1.
// result Fulfilled

// query For this compound, is measured selectivity ratio 1 or higher? COc1cc([C@H]2Oc3ccccc3[C@@H]2C)ccc1O (racemic)
// result Fulfilled

// query Please tell me: is the compound O=S(=O)(OC[C@H]1c2ccccc2O[C@@H]1c1ccc(OS(=O)(=O)c2ccccn2)cc1)c1ccccn1 (racemic) at or over 1 in terms of selectivity ratio?
// result Fulfilled

// query Would you say COc1ccc([C@H]2Oc3ccc(Br)cc3[C@@H]2CO)cc1OC (racemic) shows selectivity ratio at minimum 1?
// result Not fulfilled

// query Decide: selectivity ratio of COc1ccc([C@H]2Oc3ccccc3[C@@H]2COC(C)=O)cc1 (racemic) >= 1?
// result Not fulfilled

###

# System: L6
# ASSAY_TEXT: Cytotoxicity against rat L6 cells assessed as reduction in cell viability incubated for 70 hrs by resazurin staining based inverted microscopic analysis
# CONDITION: L6, 70 h
Could you mark each record MET if its IC50 falls strictly under 20 µM, and NOT MET if it equals or exceeds it?

// query Consider the compound OC[C@H]1c2cc(Br)ccc2O[C@@H]1c1ccc(O)c(Br)c1 (racemic) . Is its IC50 strictly less than 20 µM?
// result NOT MET

// query Record COc1ccc([C@H]2Oc3ccc(/C=C/C(=O)OC(C)(C)C)cc3[C@@H]2CO)cc1OC (racemic) : is its IC50 strictly below 20 µM?
// result NOT MET

// query Does this compound meet the criterion IC50 < 20 µM? COc1ccc([C@H]2Oc3ccc(Br)cc3[C@@H]2CO)cc1OC (racemic)
// result NOT MET

// query Field: below-cutoff. Rule: recorded IC50 strictly less than 20 µM. Subject: COc1cc([C@H]2Oc3c(OC)cc(/C=C/C(=O)CC(C)C)cc3[C@@H]2C(=O)CC(C)C)ccc1O (racemic)
// result MET

// query Take the compound CCCCOC(=O)/C=C/c1cc(OC)c2c(c1)[C@H](C(=O)OCCCC)[C@@H](c1ccc(O)c(OC)c1)O2 (racemic) and say whether its IC50 is less than 20 µM.
// result MET

// query Decide: IC50 of COc1cc([C@H]2Oc3c(OC)cc(/C=C/CO)cc3[C@@H]2CO)ccc1O (racemic) strictly below 20 µM?
// result NOT MET

// query State whether 20 µM exceeds IC50 recorded for CCCCCCCCOC(=O)/C=C/c1cc(O)c2c(c1)[C@H](C(=O)OCCCCCCCC)[C@@H](c1ccc(O)c(O)c1)O2 (racemic) .
// result MET

// query Consider OC[C@H]1c2cc(Br)ccc2O[C@@H]1c1ccc(O)c(O)c1 (racemic) . Does its IC50 lie strictly below 20 µM?
// result MET
